All figures here come from patent US20210284747A1.

% of WT binding: recorded values
- target or test system: Full length LIGHT R195A on HEK293FF cells (Homo sapiens (Human), UniProt O43557 1-240)
- Sequence (O43557 whole entry R195A): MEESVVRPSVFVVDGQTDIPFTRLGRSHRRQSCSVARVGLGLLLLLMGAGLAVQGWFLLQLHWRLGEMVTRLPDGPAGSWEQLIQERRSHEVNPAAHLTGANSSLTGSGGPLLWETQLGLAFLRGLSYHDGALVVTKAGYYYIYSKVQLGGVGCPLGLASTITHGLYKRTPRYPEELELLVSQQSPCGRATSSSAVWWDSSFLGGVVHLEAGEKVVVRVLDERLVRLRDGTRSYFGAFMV
- protocol notes: flow cytometry, HEK293FF, mAb at EC50
Please reply with the bare figure in % and do not write the unit itself.

binder | % of WT binding (%)
3B04 chimeric IgG4 mAb (antibody, V domains shown, also called Parental 3B04) VH: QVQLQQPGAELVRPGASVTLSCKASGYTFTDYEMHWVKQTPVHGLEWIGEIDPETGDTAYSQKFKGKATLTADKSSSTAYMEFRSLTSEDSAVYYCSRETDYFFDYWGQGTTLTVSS VL: DIQMTQTPASLSASVGETVTITCGASENIYGALNWYQRKQGKSPQLLIYGATNLADGMSSRFSGSGSGRQYSLKISSLHPDDFATYYCQNVLTTPWTFGGGTKLEIK | 1
3E09 chimeric IgG4 mAb (antibody, V domains shown, Chimeric human IgG4 (S-to-P, L-to-E) with human CL, as m1; also called Parental 3E09) VH: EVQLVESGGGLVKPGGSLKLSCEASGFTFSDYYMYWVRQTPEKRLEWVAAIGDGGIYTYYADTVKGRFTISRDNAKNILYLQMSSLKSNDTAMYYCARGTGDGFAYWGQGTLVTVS VL: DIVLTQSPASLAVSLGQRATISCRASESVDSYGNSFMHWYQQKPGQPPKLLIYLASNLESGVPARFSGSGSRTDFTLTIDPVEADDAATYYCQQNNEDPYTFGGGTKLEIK | 1

Now consider a different binder.
Q: Requested field: % of WT binding. Item: 2B11 chimeric IgG4 mAb (antibody, V domains shown, Chimeric human IgG4 (S-to-P, L-to-E) with human CL, as m1; Often misprinted 2B111; also called Parental 2B11; 2B111) VH: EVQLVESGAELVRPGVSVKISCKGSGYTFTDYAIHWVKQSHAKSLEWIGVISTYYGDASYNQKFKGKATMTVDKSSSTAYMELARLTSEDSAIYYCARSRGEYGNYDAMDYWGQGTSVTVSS VL: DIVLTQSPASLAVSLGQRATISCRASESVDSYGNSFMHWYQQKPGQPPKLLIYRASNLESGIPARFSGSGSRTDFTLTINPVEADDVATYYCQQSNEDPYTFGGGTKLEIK
Ans: 78
